B1: glmS ribozyme (parent)
chain: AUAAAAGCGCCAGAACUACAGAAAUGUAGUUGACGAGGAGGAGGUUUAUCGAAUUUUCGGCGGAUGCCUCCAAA

Variants of: B1
Experiment: self-cleavage kobs at 10000 uM GlcN6P; higher = faster cleavage; RNA array
Settings: with glucosamine-6-phosphate
Fewer inactive variants are shown than the library holds.
Label Condition met for high-side self-cleavage kobs at 10000 uM GlcN6P (at or above 0.0004 s⁻¹) and Condition not met for low-side self-cleavage kobs at 10000 uM GlcN6P (below it).

>  <Sequence Variant>
G32A U56C

>  <Cat>
Condition not met

$$$$
>  <Sequence Variant>
A33G C50U C58G C71U

>  <Cat>
Condition not met

$$$$
>  <Sequence Variant>
G13U U65A

>  <Cat>
Condition not met

$$$$

Qu. Could you verify whether the entry G40A G43A shows self-cleavage kobs at 10000 uM GlcN6P of no less than 0.0004 s⁻¹?
Ans. Condition not met

Qu. Is self-cleavage kobs at 10000 uM GlcN6P for C34A G62A at or above 0.0004 s⁻¹?
Ans. Condition not met

Qu. Decide: self-cleavage kobs at 10000 uM GlcN6P of C11G G51A >= 0.0004 s⁻¹?
Ans. Condition not met

Qu. Determine whether this variant has self-cleavage kobs at 10000 uM GlcN6P no lower than 0.0004 s⁻¹: C11G G13U G37C
Ans. Condition not met

Qu. Please check the record A14U C68U and state if its self-cleavage kobs at 10000 uM GlcN6P is at or above 0.0004 s⁻¹.
Ans. Condition met
